- target_system: PIK3CB;PIK3CG;PIK3CD;PIK3CA (human) (UniProt P48736)
- protocol_summary: Inhibition of PIK3CA/PIK3CB/PIK3CD/PIK3CG Kinase Activity
pIC50: −log10 of the molar value.
pIC50 values, listed per item
property_name: pIC50

INSERT INTO results (structure_smiles, target_system, reading) VALUES
  ('CN(CCO)c1cc(C(=O)O)nc2c(-c3cccc(F)c3O)nc(N3CCOCC3)nc12', 'PIK3CB;PIK3CG;PIK3CD;PIK3CA (human) (UniProt P48736)', 8.00),
  ('COCCNc1cc(C(=O)O)nc2c(-c3ccc(CO)cc3)nc(N3CCOCC3)nc12', 'PIK3CB;PIK3CG;PIK3CD;PIK3CA (human) (UniProt P48736)', 6.46),
  ('COCCN(C)c1cc(C(=O)O)nc2c(-c3cc(F)cc(F)c3)nc(N3CCOCC3)nc12', 'PIK3CB;PIK3CG;PIK3CD;PIK3CA (human) (UniProt P48736)', 5.89),
  ('COc1cccc(-c2nc(N3CCOCC3)nc3c(Cl)cc(C(=O)O)nc23)c1', 'PIK3CB;PIK3CG;PIK3CD;PIK3CA (human) (UniProt P48736)', 5.97),
  ('CNc1cc(C(=O)O)nc2c(-c3cccc(F)c3O)nc(N3CCOCC3)nc12', 'PIK3CB;PIK3CG;PIK3CD;PIK3CA (human) (UniProt P48736)', 7.32),
  ('CN(C)CCN(C)c1cc(C(=O)O)nc2c(-c3ccccc3O)nc(N3CCOCC3)nc12', 'PIK3CB;PIK3CG;PIK3CD;PIK3CA (human) (UniProt P48736)', 6.34),
  ('CN(C)CCN(C)c1cc(C(=O)O)nc2c(-c3cccc4[nH]ccc34)nc(N3CCOCC3)nc12', 'PIK3CB;PIK3CG;PIK3CD;PIK3CA (human) (UniProt P48736)', 6.86),
  ('O=C(O)c1cc(NCCO)c2nc(N3CCOCC3)nc(-c3cccc(F)c3O)c2n1', 'PIK3CB;PIK3CG;PIK3CD;PIK3CA (human) (UniProt P48736)', 7.37),
  ('COCCNc1cc(C(=O)O)nc2c(-c3cc(F)ccc3O)nc(N3CCOCC3)nc12', 'PIK3CB;PIK3CG;PIK3CD;PIK3CA (human) (UniProt P48736)', 7.14);

Numbers sourced from the Kinase Knowledgebase extract (Sharma et al. 2016).
